System: 134 cancer cell lines
protocol notes: Cell viability assay (ATPlite, 72 hours), IC50 on cancer cell line panel
test parameters: Homo sapiens, RS4-11, read-out: IC50 in cell proliferation assay, cell line RS4;11
readout kind: pIC50
// pIC50 is dimensionless: -log10 of concentration (M)

Worked cases, pIC50 given:
{"compound": "Cn1cnc2c(F)c(Nc3ccc(Br)cc3Cl)c(C(=O)NOCCO)cc21 [selumetinib]", "pIC50": 4.74}
{"compound": "Cc1cc(Nc2ncc(Cl)c(Nc3ccccc3S(=O)(=O)C(C)C)n2)c(OC(C)C)cc1C1CCNCC1 [ceritinib]", "pIC50": 5.97}

Here's the next entry for you.
Query CN1CCN(c2ccc(C(=O)Nc3n[nH]c4ccc(Cc5cc(F)cc(F)c5)cc34)c(NC3CCOCC3)c2)CC1 [entrectinib] yields pIC50 of 5.08
